experiment_notes: Pharmacokinetic study after intragastric administration
Type: in vivo, Sprague-Dawley (SD) rats
details: male, Sprague-Dawley, rat, plasma, po, 50 mg/kg, 50 mg/kg i.g., n = 6
property_name: half-life (h)
Write the value in h as a bare number.

Find the recorded half-life belonging to CC1CCC2C(C)C(OCCN(C#N)CCOC3OC4OC5(C)CCC6C(C)CCC(C3C)C46OO5)OC3OC4(C)CCC1C32OO4 (stereo not shown) and report it. 1.58

---

Tested on: H1975
experiment_notes: CCK-8 cytotoxicity assay, H1975
Assay type: cell-based
details: Homo sapiens, NCI-H1975, 72 h
What pIC50 was measured for each of the following?
Please report pIC50 as the negative decimal logarithm of the molar concentration, giving only the number.

Recorded pIC50 of CC1CCC2C(C)C(OCCNCCOC3OC4OC5(C)CCC6C(C)CCC(C3C)C46OO5)OC3OC4(C)CCC1C32OO4 (stereo not drawn) , please. 5.16

// next record CC1CCC2C(C)C(OCCN(C#N)CCOC3OC4OC5(C)CCC6C(C)CCC(C3C)C46OO5)OC3OC4(C)CCC1C32OO4 (stereo not drawn) 5.66

---

test_system: PARP1 (Homo sapiens, UniProt P09874)
Sequence (P09874 whole entry): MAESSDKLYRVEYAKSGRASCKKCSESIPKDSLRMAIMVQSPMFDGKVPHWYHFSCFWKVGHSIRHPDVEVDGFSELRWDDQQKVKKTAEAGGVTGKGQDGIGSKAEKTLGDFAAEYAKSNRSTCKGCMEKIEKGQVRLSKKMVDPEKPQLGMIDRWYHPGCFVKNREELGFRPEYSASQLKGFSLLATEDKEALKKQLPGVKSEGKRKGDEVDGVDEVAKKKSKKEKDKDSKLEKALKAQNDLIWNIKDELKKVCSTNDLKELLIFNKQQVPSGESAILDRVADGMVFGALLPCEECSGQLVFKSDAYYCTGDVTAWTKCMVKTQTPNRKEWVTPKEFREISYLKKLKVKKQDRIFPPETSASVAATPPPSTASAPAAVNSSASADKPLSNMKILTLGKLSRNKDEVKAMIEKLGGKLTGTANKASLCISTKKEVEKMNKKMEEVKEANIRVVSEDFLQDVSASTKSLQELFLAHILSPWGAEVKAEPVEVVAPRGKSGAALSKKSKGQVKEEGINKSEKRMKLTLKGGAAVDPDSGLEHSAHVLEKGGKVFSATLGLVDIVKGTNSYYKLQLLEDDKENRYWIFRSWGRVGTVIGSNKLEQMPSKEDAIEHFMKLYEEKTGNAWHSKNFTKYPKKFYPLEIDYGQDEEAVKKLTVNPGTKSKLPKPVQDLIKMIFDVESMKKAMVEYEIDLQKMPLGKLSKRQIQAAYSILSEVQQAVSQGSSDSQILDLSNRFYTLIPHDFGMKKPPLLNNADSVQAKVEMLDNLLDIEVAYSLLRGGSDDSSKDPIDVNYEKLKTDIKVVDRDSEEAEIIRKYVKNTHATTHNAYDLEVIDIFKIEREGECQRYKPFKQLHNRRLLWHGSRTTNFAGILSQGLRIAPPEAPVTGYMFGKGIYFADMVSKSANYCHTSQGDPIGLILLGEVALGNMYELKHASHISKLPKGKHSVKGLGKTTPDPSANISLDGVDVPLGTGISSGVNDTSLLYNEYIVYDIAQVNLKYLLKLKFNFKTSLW
experiment_notes: SPR analysis (Biacore S200)
details: 25 °C, Steady State Affinity model
property_name: Kd (nM)
Please respond with the number in nM and leave the unit unwritten.

Requested field: Kd. Item: CC1CCC2C(C)C(OCCN(C#N)CCOC3OC4OC5(C)CCC6C(C)CCC(C3C)C46OO5)OC3OC4(C)CCC1C32OO4 (stereo not shown) 2860

---

experiment_notes: Pharmacokinetic study after intragastric administration
Type: in vivo, Sprague-Dawley (SD) rats
details: male, Sprague-Dawley, plasma, po; rat, 50 mg/kg i.g., n = 6
property_name: Cmax (µg/mL)
The reply should be a number in µg/mL, with the unit left off.

Request the reported Cmax associated with CC1CCC2C(C)C(OCCN(C#N)CCOC3OC4OC5(C)CCC6C(C)CCC(C3C)C46OO5)OC3OC4(C)CCC1C32OO4 (stereo not shown) [ZQJ29] 0.0118

---

Tested on: MCF
experiment_notes: CCK-8 cytotoxicity assay, MCF
Assay type: cell-based
details: 72 h
property_name: pIC50
Just the number, please; pIC50 means minus log10 of the concentration in mol/L.

Suppose we examine the compound O=C1[O][Pt]2([NH][C@@H]3CCCC[C@H]3[NH]2)[O]C1=O [OXA, oxaliplatin] ; what pIC50 value has been reported? 6.71

Here is the next compound: N.N.[Cl][Pt][Cl] [DDP] 7.44

Ok, now CC1CCC2C(C)C(OCCN(C#N)CCOC3OC4OC5(C)CCC6C(C)CCC(C3C)C46OO5)OC3OC4(C)CCC1C32OO4 (centres unmarked) [ZQJ29] 6.12

Now this one: CC1CCC2C(C)C(OCCNCCOC3OC4OC5(C)CCC6C(C)CCC(C3C)C46OO5)OC3OC4(C)CCC1C32OO4 (centres unmarked) [SM1044] 5.87

---

experiment_notes: Pharmacokinetic study after intragastric administration
Format: in vivo, Sprague-Dawley (SD) rats
details: male, Sprague-Dawley, plasma, po; rat, 50 mg/kg i.g., n = 6; read-out: MRT0-t
property_name: MRT last (h)
Give the number; h is assumed, so skip it.

Field request: MRT last | item: CC1CCC2C(C)C(OCCN(C#N)CCOC3OC4OC5(C)CCC6C(C)CCC(C3C)C46OO5)OC3OC4(C)CCC1C32OO4 (stereo not shown) [ZQJ29] 2.74

The measurements presented in this section are drawn from paper PMC12362764.
